Target Of Assay: Casein kinase II subunit alpha' (Homo sapiens, UniProt P19784)
Sequence (P19784 whole entry, the tested form may be a part): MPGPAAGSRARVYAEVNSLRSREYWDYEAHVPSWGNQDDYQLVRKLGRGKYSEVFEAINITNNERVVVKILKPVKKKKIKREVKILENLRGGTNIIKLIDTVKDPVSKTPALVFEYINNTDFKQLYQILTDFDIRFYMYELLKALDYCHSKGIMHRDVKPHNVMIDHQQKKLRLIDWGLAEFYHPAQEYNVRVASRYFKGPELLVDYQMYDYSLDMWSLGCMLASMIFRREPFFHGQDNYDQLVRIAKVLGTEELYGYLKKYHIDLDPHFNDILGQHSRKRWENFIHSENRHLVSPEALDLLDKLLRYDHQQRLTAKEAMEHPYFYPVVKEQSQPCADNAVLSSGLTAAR
Assay Info: Inhibition of NLuc-fused CSNK2A2 (unknown origin) expressed in HEK293 cells incubated for 2 hrs by NanoBRET assay
Type: cell-based
Provide the reported pIC50 of each item.
Bear in mind: pIC50 is minus log10 of a mol/L concentration; give just that figure.

The compound N#Cc1cnn2c(NC3CC3)cc(Nc3ccc(N4CCC[C@H](N)C4)c(-n4cnnc4)c3)nc12 showed pIC50 equal to 6.90

What the record says about CN[C@@H]1CCCN(c2cc(F)c(Nc3cc(NC4CC4)n4ncc(C#N)c4n3)cc2-n2cnnc2)C1 : pIC50 is 6.80

The recorded pIC50 for N#Cc1cnn2c(NC3CC3)cc(Nc3cccc(-c4ccccn4)c3)nc12 is 5.30

Measured pIC50, CCNCCN(C)c1ccc(Nc2cc(NC3CC3)n3ncc(C#N)c3n2)cc1-n1cnnc1 : 6.20

pIC50 measured on N#Cc1cnn2c(NC3CC3)cc(Nc3cccc(-c4nccs4)c3)nc12 = 6.10

So, CP(C)(=O)Cc1cccc(Nc2cc(NC3CC3)n3ncc(C#N)c3n2)c1 ? Its pIC50 was 6.20

Data point: N#Cc1cnn2c(NC3CC3)cc(Nc3cccc(-n4cnnn4)c3)nc12 ; pIC50 = 8.30

====

Assign pIC50 to each entry below.
Target Of Assay: Casein kinase II subunit alpha' (Homo sapiens, UniProt P19784)
Assay Info: Inhibition of NLuc-fused CSNK2A2 (unknown origin) expressed in HEK293 cells incubated for 2 hrs by NanoBRET assay
Format: cell-based
Just the number, please; pIC50 means minus log10 of the concentration in mol/L.

compound N#Cc1cnn2c(Nc3cn(CCN4CCCC4)cn3)cc(Nc3cccc(-n4cnnc4)c3)nc12 , pIC50 observed: 6.70

Measured pIC50 of Cn1cnc(Nc2cc(Nc3cccc(-n4cnnc4)c3)nc3c(C#N)cnn23)c1 : 7.10

Data point: N#Cc1cnn2c(NC3CC3)cc(Nc3ccc(F)c(-n4cnnc4)c3)nc12 ; pIC50 = 8.30

Record N#Cc1cnn2c(NC3CC3)cc(Nc3cccc(-c4nnco4)c3)nc12 . Reported pIC50: 6.20

For record N#Cc1cnn2c(NC3CC3)cc(Nc3cccc(-c4cnn[nH]4)c3)nc12 the listed pIC50 is 8.00

Recorded pIC50 (compound Cc1nccn1-c1cccc(Nc2cc(NC3CC3)n3ncc(C#N)c3n2)c1 ): 7.50

Sample N#Cc1cnn2c(NC3CC3)cc(Nc3cccc(-n4ccnn4)c3)nc12 ; pIC50 observed: 6.30

get_value(item= N#Cc1cnn2c(NC3CC3)cc(Nc3ccc(N4CC[C@@H](N)C4)c(-n4cnnc4)c3)nc12 , readout=pIC50) returns 6.60

Notebook: CN(CCO)c1cc(F)c(Nc2cc(NC3CC3)n3ncc(C#N)c3n2)cc1-n1cnnc1 , pIC50 read as 7.20

The compound identified as COCCNc1ccc(Nc2cc(NC3CC3)n3ncc(C#N)c3n2)cc1-n1cnnc1 registered its pIC50 at 6.90

The value of pIC50 measured for the compound CN(CCN1CCOCC1)c1ccc(Nc2cc(NC3CC3)n3ncc(C#N)c3n2)cc1-n1cnnc1 turned out to be 7.10

The compound listed as N#Cc1cnn2c(NC3CC3)cc(Nc3cccc(-n4ncnn4)c3)nc12 has a reported pIC50 of 6.70

====

Target Of Assay: Casein kinase II subunit alpha' (Homo sapiens, UniProt P19784)
Assay Info: Inhibition of NLuc-fused CSNK2A2 (unknown origin) expressed in HEK293 cells incubated for 2 hrs by NanoBRET assay
Assay type: cell-based
Recorded Endpoint: IC50

Bench note, Casein kinase II subunit alpha' (Homo sapiens, UniProt P19784): entry N#Cc1cnn2c(NC3CC3)cc(Nc3cccc(-c4nn[nH]n4)c3)nc12 , its IC50 = > 10 µM

The compound N#Cc1cnn2c(NCC3CCOCC3)cc(Nc3cccc(-n4cnnc4)c3)nc12 , when measured on Casein kinase II subunit alpha' (Homo sapiens, UniProt P19784), yielded IC50 of > 10 µM

Item N#Cc1cnn2c(NCCO)cc(Nc3cccc(-n4cnnc4)c3)nc12 was tested on Casein kinase II subunit alpha' (Homo sapiens, UniProt P19784); the reported IC50 is > 10 µM
